Below: a set of entries, each annotated with reported IC50.
- Measured Target: hCES1A (Homo sapiens, UniProt P23141)
- Construct: tissue Bioreclamation IVT lot no; X008067; host or cells: pooled human liver microsomes (50 donors)
- Sequence (P23141 18-567): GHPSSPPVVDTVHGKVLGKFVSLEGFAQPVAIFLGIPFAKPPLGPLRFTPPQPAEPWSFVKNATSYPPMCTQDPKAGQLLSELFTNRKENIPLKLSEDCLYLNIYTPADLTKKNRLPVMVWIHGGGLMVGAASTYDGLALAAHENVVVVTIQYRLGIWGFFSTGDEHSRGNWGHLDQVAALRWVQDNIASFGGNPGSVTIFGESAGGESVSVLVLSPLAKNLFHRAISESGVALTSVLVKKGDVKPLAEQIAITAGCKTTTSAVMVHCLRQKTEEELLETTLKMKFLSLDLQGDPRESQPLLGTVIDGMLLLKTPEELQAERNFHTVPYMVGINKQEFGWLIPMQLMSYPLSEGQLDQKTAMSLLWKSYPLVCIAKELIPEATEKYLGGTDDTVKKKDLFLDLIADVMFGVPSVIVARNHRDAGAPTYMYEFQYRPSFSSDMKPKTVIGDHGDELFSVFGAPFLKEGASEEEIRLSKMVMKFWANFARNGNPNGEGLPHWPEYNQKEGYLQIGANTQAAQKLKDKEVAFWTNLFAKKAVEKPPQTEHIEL
- Experiment Description: hCES1A inhibition assay (DME hydrolysis in HLM)
- Format: biochemical
- Condition Notes: HLM as enzyme source, DME hydrolysis as probe reaction; read-out: IC50 (μM) hCES1A

{"columns": ["Compound", "Measured Target", "IC50"],
 "data": [
  ["CC(C)=CCC[C@](C)(O)[C@H]1CC[C@]2(C)[C@@H]1[C@H](O)C[C@@H]1[C@@]3(C)CC[C@H](O)C(C)(C)[C@@H]3[C@@H](O[C@@H]3O[C@H](CO)[C@@H](O)[C@H](O)[C@H]3O[C@@H]3O[C@@H](C)[C@H](O)[C@@H](O)[C@H]3O)C[C@]12C [Rg2, ginsenoside Rg2]", "hCES1A (Homo sapiens, UniProt P23141)", "> 100 µM"],
  ["CC(C)=CCC[C@](C)(O[C@@H]1O[C@H](CO)[C@@H](O)[C@H](O)[C@H]1O)[C@H]1CC[C@]2(C)[C@@H]1[C@H](O)C[C@@H]1[C@@]3(C)CC[C@H](O)C(C)(C)[C@@H]3[C@@H](O)C[C@]12C [F1, ginsenoside F1]", "hCES1A (Homo sapiens, UniProt P23141)", "> 100 µM"],
  ["CC(C)=CCC[C@](C)(O[C@@H]1O[C@H](CO)[C@@H](O)[C@H](O)[C@H]1O)[C@H]1CC[C@]2(C)[C@@H]1[C@H](O)C[C@@H]1[C@@]3(C)CC[C@H](O[C@@H]4O[C@H](CO)[C@@H](O)[C@H](O)[C@H]4O[C@@H]4O[C@H](CO)[C@@H](O)[C@H](O)[C@H]4O)C(C)(C)[C@@H]3CC[C@]12C [Rd]", "hCES1A (Homo sapiens, UniProt P23141)", "> 100 µM"]
]}

* * *

Examples of compounds with documented IC50 follow.
- Measured Target: hCES1A (Homo sapiens, UniProt P23141)
- Construct: tissue Bioreclamation IVT lot no; X008067; host or cells: pooled human liver microsomes (50 donors)
- Experiment Description: hCES1A inhibition assay (DME hydrolysis in HLM);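 further: Read-out is D-luciferin luminescence formed from DME (3 µM) after 10 min at 37 °C in pH 6.5 PBS, HLM 1 µg/mL, inhibitor preincubated 3 min, oleanic acid as positive control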
- Type: biochemical
- Condition Notes: HLM as enzyme source, DME hydrolysis as probe reaction; read-out: IC50 (μM) hCES1A
Value Kind: IC50 (µM)

{"columns": ["Compound", "Value Kind", "Qual", "Data Value"],
 "data": [
  ["CC(C)=CCC[C@](C)(O)C1CC[C@]2(C)C1[C@H](O)CC1[C@@]3(C)CC[C@H](O[C@@H]4O[C@H](CO)[C@@H](O)[C@H](O)[C@H]4O[C@@H]4O[C@H](CO)[C@@H](O)[C@H](O)[C@H]4O)C(C)(C)C3CC[C@]12C (some centres unmarked)", "IC50", ">", 100],
  ["CC1(C)CCC[C@](C)([C@H]2CC[C@]3(C)[C@@H]2[C@H](O)C[C@@H]2[C@@]4(C)CC[C@H](O)C(C)(C)[C@@H]4[C@@H](O)C[C@]23C)O1", "IC50", "=", 34.9]
]}
